Assay: Clearance in ICR mouse at 1 mg/kg, iv measured upto 24 hrs by LC-MS/MS analysis
Assay type: ADME, organism-based
Conditions: in vivo
metric: clearance
Don't forget the unit after the value.

Recorded clearance of C[C@@H](C(=O)N1CCN(c2ncc(C(F)(F)F)cn2)CC1)n1cc2cccc(C(N)=O)c2n1 , please.
0.577 L/h/kg

----------
Assay: Permeability across apical to basolateral side in human Caco-2 cells
Format: ADME, cell-based
Below is a list of entries, each paired with its recorded Papp A→B value.
State just the number; it will be interpreted in ×10⁻⁶ cm/s.

C[C@@H](COCCC(=O)N1CCN(c2ncc(C(F)(F)F)cn2)CC1)Nc1cn[nH]c(=O)c1C(F)(F)F [ATAMPARIB]
4.1

Shift focus to the following entry.
Recorded Papp A→B of C[C@@H](C(=O)N1CCN(c2ncc(C(F)(F)F)cn2)CC1)n1cc2cccc(C(N)=O)c2n1 , please.
25.7

----------
Molecular target: Protein mono-ADP-ribosyltransferase PARP14 (Homo sapiens)
Sequence (Q460N5 whole entry): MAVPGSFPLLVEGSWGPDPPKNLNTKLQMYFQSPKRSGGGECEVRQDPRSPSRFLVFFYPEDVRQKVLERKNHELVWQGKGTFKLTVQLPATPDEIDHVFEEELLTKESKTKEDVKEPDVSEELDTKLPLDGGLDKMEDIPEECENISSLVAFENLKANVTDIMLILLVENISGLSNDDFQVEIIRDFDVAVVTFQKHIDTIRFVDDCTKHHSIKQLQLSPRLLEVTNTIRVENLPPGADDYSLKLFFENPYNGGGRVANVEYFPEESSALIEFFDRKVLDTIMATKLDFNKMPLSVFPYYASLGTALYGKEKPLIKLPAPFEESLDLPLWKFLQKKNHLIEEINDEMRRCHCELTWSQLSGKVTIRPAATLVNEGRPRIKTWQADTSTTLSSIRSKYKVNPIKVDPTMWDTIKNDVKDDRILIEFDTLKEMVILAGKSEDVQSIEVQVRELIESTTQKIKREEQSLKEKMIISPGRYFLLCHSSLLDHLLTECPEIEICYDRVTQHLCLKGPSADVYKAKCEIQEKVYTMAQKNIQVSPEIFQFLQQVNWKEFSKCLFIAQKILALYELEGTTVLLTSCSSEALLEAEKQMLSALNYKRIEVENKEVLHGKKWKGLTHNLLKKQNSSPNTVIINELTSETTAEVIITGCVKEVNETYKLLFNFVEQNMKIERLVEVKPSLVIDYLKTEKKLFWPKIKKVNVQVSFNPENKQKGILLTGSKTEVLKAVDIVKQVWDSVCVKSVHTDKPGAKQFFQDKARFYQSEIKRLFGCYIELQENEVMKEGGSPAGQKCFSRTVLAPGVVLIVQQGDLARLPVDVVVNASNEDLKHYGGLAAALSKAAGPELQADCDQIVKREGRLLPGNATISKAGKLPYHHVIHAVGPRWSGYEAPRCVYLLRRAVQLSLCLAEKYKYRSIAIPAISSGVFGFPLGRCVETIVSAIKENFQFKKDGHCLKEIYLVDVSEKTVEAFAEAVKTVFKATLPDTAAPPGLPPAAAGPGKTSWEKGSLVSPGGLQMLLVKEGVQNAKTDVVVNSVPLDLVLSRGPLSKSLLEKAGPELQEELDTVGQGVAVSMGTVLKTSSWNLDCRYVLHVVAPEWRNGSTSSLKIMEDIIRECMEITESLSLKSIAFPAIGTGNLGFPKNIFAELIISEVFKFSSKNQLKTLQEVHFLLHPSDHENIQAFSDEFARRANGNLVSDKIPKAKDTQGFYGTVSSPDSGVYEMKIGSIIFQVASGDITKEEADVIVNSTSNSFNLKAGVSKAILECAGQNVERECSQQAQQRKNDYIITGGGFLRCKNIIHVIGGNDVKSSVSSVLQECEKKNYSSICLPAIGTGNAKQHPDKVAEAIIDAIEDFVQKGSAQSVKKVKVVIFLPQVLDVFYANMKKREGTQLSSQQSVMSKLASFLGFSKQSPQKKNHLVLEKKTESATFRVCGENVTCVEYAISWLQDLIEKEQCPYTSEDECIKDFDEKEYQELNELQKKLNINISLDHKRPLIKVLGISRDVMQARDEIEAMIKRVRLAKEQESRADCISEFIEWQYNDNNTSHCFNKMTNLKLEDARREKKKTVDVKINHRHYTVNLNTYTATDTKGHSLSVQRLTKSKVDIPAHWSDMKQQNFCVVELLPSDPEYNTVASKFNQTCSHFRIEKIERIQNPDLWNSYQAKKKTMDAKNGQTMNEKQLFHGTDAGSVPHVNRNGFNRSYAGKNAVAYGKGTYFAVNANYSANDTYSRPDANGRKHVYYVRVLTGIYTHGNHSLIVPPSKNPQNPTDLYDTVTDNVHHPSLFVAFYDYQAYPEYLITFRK
metric: IC50

Tell me reported IC50 for C[C@@H](C(=O)N1CCN(c2ncc(C(F)(F)F)cn2)CC1)n1cc2cccc(C(N)=O)c2n1 , tested with Protein mono-ADP-ribosyltransferase PARP14 (Homo sapiens).
> 1300 nM

----------
Biological target: Poly [ADP-ribose] polymerase 2 (Homo sapiens)
Sequence (Q9UGN5 whole entry): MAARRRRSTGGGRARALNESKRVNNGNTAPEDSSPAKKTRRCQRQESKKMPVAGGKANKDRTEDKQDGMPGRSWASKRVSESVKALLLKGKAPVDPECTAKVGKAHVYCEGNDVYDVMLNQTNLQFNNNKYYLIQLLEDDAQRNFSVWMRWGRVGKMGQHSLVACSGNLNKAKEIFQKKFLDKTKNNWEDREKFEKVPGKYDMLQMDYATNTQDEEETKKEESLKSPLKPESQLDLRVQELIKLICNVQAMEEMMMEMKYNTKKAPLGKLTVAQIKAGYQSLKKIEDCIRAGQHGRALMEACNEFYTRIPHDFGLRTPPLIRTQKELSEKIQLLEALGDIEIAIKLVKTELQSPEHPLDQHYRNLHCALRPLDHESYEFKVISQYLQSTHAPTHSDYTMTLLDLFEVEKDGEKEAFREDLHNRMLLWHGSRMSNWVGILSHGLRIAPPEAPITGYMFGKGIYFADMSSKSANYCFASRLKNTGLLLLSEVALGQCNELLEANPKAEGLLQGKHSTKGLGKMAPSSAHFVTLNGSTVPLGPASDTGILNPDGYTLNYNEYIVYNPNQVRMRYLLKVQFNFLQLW
metric: pIC50
Remember, pIC50 is on a log scale: it is -log10 of the molar concentration.

Recorded pIC50 of C[C@@H](C(=O)N1CCN(c2ncc(C(F)(F)F)cn2)CC1)n1cc2cccc(C(N)=O)c2n1 , please.
6.52

----------
Experiment: Clearance in ICR mouse
Type: ADME
Details: in vivo
metric: clearance (mL/min/kg)
State just the number; it will be interpreted in mL/min/kg.

Recorded clearance of C[C@@H](COCCC(=O)N1CCN(c2ncc(C(F)(F)F)cn2)CC1)Nc1cn[nH]c(=O)c1C(F)(F)F , please.
67

----------
Test: Cmax in ICR mouse at 1 mg/kg, iv measured upto 24 hrs by LC-MS/MS analysis
Format: ADME, organism-based
Conditions: in vivo
metric: Cmax (ng/mL)
State just the number; it will be interpreted in ng/mL.

Recorded Cmax of C[C@@H](C(=O)N1CCN(c2ncc(C(F)(F)F)cn2)CC1)n1cc2cccc(C(N)=O)c2n1 , please.
1360

----------
Experiment: Half life in ICR mouse at 10 mg/kg, IG measured upto 24 hrs by LC-MS/MS analysis
Assay type: ADME, organism-based
Conditions: in vivo, po
metric: half-life (h)
State just the number; it will be interpreted in h.

Recorded half-life of C[C@@H](C(=O)N1CCN(c2ncc(C(F)(F)F)cn2)CC1)n1cc2cccc(C(N)=O)c2n1 , please.
1.76

----------
Molecular target: Protein mono-ADP-ribosyltransferase PARP10 (Homo sapiens, UniProt Q53GL7)
Sequence (Q53GL7 whole entry): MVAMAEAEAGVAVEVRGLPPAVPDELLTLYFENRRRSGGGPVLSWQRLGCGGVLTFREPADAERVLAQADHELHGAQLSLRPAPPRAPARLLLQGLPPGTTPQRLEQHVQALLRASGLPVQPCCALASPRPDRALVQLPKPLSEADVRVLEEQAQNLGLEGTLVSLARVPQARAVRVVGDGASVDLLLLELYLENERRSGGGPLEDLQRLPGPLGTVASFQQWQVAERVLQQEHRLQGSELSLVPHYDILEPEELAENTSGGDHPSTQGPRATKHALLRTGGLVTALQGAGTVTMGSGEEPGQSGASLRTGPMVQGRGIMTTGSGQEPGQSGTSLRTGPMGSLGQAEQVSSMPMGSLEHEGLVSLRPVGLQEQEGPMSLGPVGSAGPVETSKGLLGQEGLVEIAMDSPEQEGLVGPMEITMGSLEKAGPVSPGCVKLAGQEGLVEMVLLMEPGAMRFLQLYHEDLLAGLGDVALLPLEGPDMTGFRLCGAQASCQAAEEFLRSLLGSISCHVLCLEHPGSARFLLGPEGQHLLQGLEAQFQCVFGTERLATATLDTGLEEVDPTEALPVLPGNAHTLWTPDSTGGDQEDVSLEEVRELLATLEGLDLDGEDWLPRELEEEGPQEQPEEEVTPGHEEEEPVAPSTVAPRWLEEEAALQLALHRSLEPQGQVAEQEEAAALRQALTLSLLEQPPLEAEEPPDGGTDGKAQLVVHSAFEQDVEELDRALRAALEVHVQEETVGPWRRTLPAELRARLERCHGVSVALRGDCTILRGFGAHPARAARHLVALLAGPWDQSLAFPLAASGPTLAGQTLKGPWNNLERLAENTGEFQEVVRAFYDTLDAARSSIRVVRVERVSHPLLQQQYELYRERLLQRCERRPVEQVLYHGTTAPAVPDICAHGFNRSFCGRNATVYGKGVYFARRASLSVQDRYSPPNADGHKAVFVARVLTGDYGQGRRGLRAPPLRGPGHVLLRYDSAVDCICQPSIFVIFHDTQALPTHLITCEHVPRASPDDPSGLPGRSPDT
metric: IC50 (nM)
State just the number; it will be interpreted in nM.

Tell me reported IC50 for C[C@@H](C(=O)N1CCN(c2ncc(C(F)(F)F)cn2)CC1)n1cc2cccc(C(N)=O)c2n1 , tested with Protein mono-ADP-ribosyltransferase PARP10 (Homo sapiens, UniProt Q53GL7).
377

----------
Experiment: Cmax in ICR mouse at 10 mg/kg, IG measured upto 24 hrs by LC-MS/MS analysis
Type: ADME, organism-based
Details: in vivo, po
metric: Cmax (ng/mL)
State just the number; it will be interpreted in ng/mL.

Recorded Cmax of C[C@@H](C(=O)N1CCN(c2ncc(C(F)(F)F)cn2)CC1)n1cc2cccc(C(N)=O)c2n1 , please.
7350

----------
Experiment: MRT (0 to infinity) in ICR mouse at 1 mg/kg, iv measured upto 24 hrs by LC-MS/MS analysis
Format: ADME, organism-based
Conditions: in vivo
metric: MRT inf (h)
State just the number; it will be interpreted in h.

Recorded MRT inf of C[C@@H](C(=O)N1CCN(c2ncc(C(F)(F)F)cn2)CC1)n1cc2cccc(C(N)=O)c2n1 , please.
1.52

----------
Assay: AUC (0 to infinity) in ICR mouse at 10 mg/kg, IG measured upto 24 hrs by LC-MS/MS analysis
Format: ADME, organism-based
Settings: in vivo, po
metric: AUC(0-inf) (ng·h/mL)
State just the number; it will be interpreted in ng·h/mL.

Recorded AUC(0-inf) of C[C@@H](C(=O)N1CCN(c2ncc(C(F)(F)F)cn2)CC1)n1cc2cccc(C(N)=O)c2n1 , please.
17000

----------
Assay: Tmax in ICR mouse at 1 mg/kg, iv measured upto 24 hrs by LC-MS/MS analysis
Format: ADME, organism-based
Details: in vivo
metric: Tmax (min)
State just the number; it will be interpreted in min.

Recorded Tmax of C[C@@H](C(=O)N1CCN(c2ncc(C(F)(F)F)cn2)CC1)n1cc2cccc(C(N)=O)c2n1 , please.
4.8

----------
Molecular target: Protein mono-ADP-ribosyltransferase TIPARP (Homo sapiens)
Assay: Inhibition of PARP7 (unknown origin) at 100 nM measured after 1 hr incubation by microplate reader assay relative to control
metric: inhibition (%)
State just the number; it will be interpreted in %.

Recorded inhibition of Cc1cnc(N2CCN(C(=O)C(C)n3cc4cccc(C(N)=O)c4n3)CC2)nc1 (stereo unspecified) , please.
79.5

----------
Molecular target: Protein mono-ADP-ribosyltransferase TIPARP (Homo sapiens)
Assay: Inhibition of PARP7 (unknown origin) at 100 nM measured after 1 hr incubation by microplate reader assay relative to control
Below is a list of entries, each paired with its recorded inhibition value.
State just the number; it will be interpreted in %.

Some entries whose results are on file:
NC(=O)c1cccc2cn(CC(=O)N3CCN(c4ncc(C(F)(F)F)cn4)CC3)nc12
89
NC(=O)c1cccc2cn(CC(=O)N3CCN(c4ccc(C(F)(F)F)cn4)CC3)nc12
68.7
NC(=O)c1cccc2cn(CCC(=O)N3CCN(c4ncc(C(F)(F)F)cn4)CC3)nc12
33.9
CC(C(=O)N1CCN(c2ncc(C#N)cn2)CC1)n1cc2cccc(C(N)=O)c2n1 (stereo not given)
71

Tell me reported inhibition for COc1cnc(N2CCN(C(=O)C(C)n3cc4cccc(C(N)=O)c4n3)CC2)nc1 (stereo not given) , tested with Protein mono-ADP-ribosyltransferase TIPARP (Homo sapiens).
65.5
